# Tested on: COLO 205
# assay_comment: Cytotoxicity against human COLO205 cells assessed as decrease in cell number after 24 hrs by MTT assay
# Assay type: functional, cell-based
# recorded_conditions: COLO 205, 24 h
Listed here are molecules together with their documented IC50.

[
  {
    "molecule": "C=C(CC(C=C(C)C)OC(C)=O)[C@@H]1C[C@@H](O)[C@@]2(C)[C@@H]1[C@@H]1[C@H](C)CC[C@@H]12 (stereo partly drawn)",
    "unit_text": "µg/mL",
    "IC50": 87.3
  },
  {
    "molecule": "C=C(C(=O)/C=C/C(C)(O)COC(C)=O)[C@@H]1C[C@@H](OC(C)=O)[C@@]2(C)[C@@H]1[C@@H]1[C@H](C)CC[C@@H]12 (stereo partly drawn)",
    "unit_text": "µg/mL",
    "IC50": 26.8
  },
  {
    "molecule": "COc1cc([C@@H]2c3cc4c(cc3[C@@H](O[C@@H]3O[C@@H]5CO[C@@H](C)O[C@H]5[C@H](O)[C@H]3O)[C@H]3COC(=O)[C@H]23)OCO4)cc(OC)c1O [ETOPOSIDE]",
    "unit_text": "µg/mL",
    "IC50": 1.07
  },
  {
    "molecule": "C=C(C(=O)/C=C/C(C)=O)[C@@H]1CC(=O)[C@@]2(C)[C@@H]1[C@@H]1[C@H](C)CC[C@@H]12",
    "unit_text": "µg/mL",
    "IC50": 32
  },
  {
    "molecule": "C=C(C(O)/C=C/C(C)=O)[C@@H]1C[C@@H](O)[C@@]2(C)[C@@H]1[C@@H]1[C@H](C)CC[C@@H]12 (stereo partly drawn)",
    "unit_text": "µg/mL",
    "IC50": 42.1
  },
  {
    "molecule": "C=C(CC(C=C(C)C)OC(C)=O)[C@@H]1C[C@@H](OC(C)=O)[C@@]2(C)[C@@H]1[C@@H]1[C@H](C)CC[C@@H]12 (mixture of isomers)",
    "unit_text": "µg/mL",
    "IC50": 67.1
  },
  {
    "molecule": "C=C(C(O)/C=C/C(C)(O)CO)[C@@H]1C[C@@H](O)[C@@]2(C)[C@@H]1[C@@H]1[C@H](C)CC[C@@H]12 (mixture of isomers)",
    "unit_text": "µg/mL",
    "IC50": 17.4
  },
  {
    "molecule": "C=C(C(O)/C=C/C(C)(O)COC(C)=O)[C@@H]1C[C@@H](OC(C)=O)[C@@]2(C)[C@@H]1[C@@H]1[C@H](C)CC[C@@H]12 (mixture of isomers)",
    "unit_text": "µg/mL",
    "IC50": 36.1
  },
  {
    "molecule": "C=C(C(=O)/C=C/C(C)(O)COC(C)=O)[C@@H]1C[C@@H](O)[C@@]2(C)[C@@H]1[C@@H]1[C@H](C)CC[C@@H]12 (stereo partly drawn)",
    "unit_text": "µg/mL",
    "IC50": 35.1
  },
  {
    "molecule": "C=C(C[C@@H](O)C=C(C)C)[C@@H]1C[C@@H](O)[C@@]2(C)[C@@H]1[C@@H]1[C@H](C)CC[C@@H]12",
    "unit_text": "µg/mL",
    "IC50": 72.2
  },
  {
    "molecule": "C=C(CC(=O)C=C(C)C)[C@@H]1CC(=O)[C@@]2(C)[C@@H]1[C@@H]1[C@H](C)CC[C@@H]12",
    "unit_text": "µg/mL",
    "IC50": 167
  },
  {
    "molecule": "C=C(C)C(O)CCC(=C)[C@@H]1C[C@@H](OC(C)=O)[C@@]2(C)[C@@H]1[C@@H]1[C@H](C)CC[C@@H]12 (mixture of isomers)",
    "unit_text": "µg/mL",
    "IC50": 145
  },
  {
    "molecule": "C=C(C/C=C/C(C)(C)O)[C@@H]1C[C@@H](OC(C)=O)[C@@]2(C)[C@@H]1[C@@H]1[C@H](C)CC[C@@H]12 (mixture of isomers)",
    "unit_text": "µg/mL",
    "IC50": 64.7
  }
]

====

# Test system: Escherichia coli
# assay_comment: Antibacterial activity against Escherichia coli assessed as growth inhibition at 0.5 mg/ml after 24 hrs by well diffusion method
# Format: functional
# recorded_conditions: read-out: DIZ
measured_quantity: zone of inhibition at 500 µg/mL

[
  {
    "molecule": "CN[C@@H]1[C@H](O[C@H]2[C@H](O[C@H]3[C@H](O)[C@@H](O)[C@H](N=C(N)N)[C@@H](O)[C@@H]3N=C(N)N)O[C@@H](C)[C@]2(O)C=O)O[C@@H](CO)[C@H](O)[C@H]1O.CN[C@@H]1[C@H](O[C@H]2[C@H](O[C@H]3[C@H](O)[C@@H](O)[C@H](N=C(N)N)[C@@H](O)[C@@H]3N=C(N)N)O[C@@H](C)[C@]2(O)C=O)O[C@@H](CO)[C@H](O)[C@H]1O.O=S(=O)(O)O.O=S(=O)(O)O.O=S(=O)(O)O [STREPTOMYCIN SULFATE]",
    "measured_quantity": "zone of inhibition at 500 µg/mL",
    "val": "30.3 mm"
  },
  {
    "molecule": "C=C(C(/C=C/C(C)(O)COC(C)=O)OC(C)=O)[C@@H]1C[C@@H](OC(C)=O)[C@@]2(C)[C@@H]1[C@@H]1[C@H](C)CC[C@@H]12 (some centres undefined)",
    "measured_quantity": "zone of inhibition at 500 µg/mL",
    "val": "21.3 mm"
  },
  {
    "molecule": "C=C(C)C(O)CCC(=C)[C@@H]1C[C@@H](OC(C)=O)[C@@]2(C)[C@@H]1[C@@H]1[C@H](C)CC[C@@H]12 (mixture of isomers)",
    "measured_quantity": "zone of inhibition at 500 µg/mL",
    "val": "15.7 mm"
  },
  {
    "molecule": "C=C(C(=O)/C=C/C(C)(O)COC(C)=O)[C@@H]1C[C@@H](OC(C)=O)[C@@]2(C)[C@@H]1[C@@H]1[C@H](C)CC[C@@H]12 (some centres undefined)",
    "measured_quantity": "zone of inhibition at 500 µg/mL",
    "val": "23.7 mm"
  }
]

====

# Tested on: Bacillus subtilis
# assay_comment: Antibacterial activity against Bacillus subtilis assessed as compound concentration required to complete growth inhibition at 8 hrs by tube dilution method
# Assay type: functional
measured_quantity: MIC (µg/mL)

[
  {
    "compound": "C=C(CC(C=C(C)C)OC(C)=O)[C@@H]1C[C@@H](OC(C)=O)[C@@]2(C)[C@@H]1[C@@H]1[C@H](C)CC[C@@H]12 (mixture of isomers)",
    "measured_quantity": "MIC",
    "unit_text": "µg/mL",
    "val": 400
  },
  {
    "compound": "CN[C@@H]1[C@H](O[C@H]2[C@H](O[C@H]3[C@H](O)[C@@H](O)[C@H](N=C(N)N)[C@@H](O)[C@@H]3N=C(N)N)O[C@@H](C)[C@]2(O)C=O)O[C@@H](CO)[C@H](O)[C@H]1O.CN[C@@H]1[C@H](O[C@H]2[C@H](O[C@H]3[C@H](O)[C@@H](O)[C@H](N=C(N)N)[C@@H](O)[C@@H]3N=C(N)N)O[C@@H](C)[C@]2(O)C=O)O[C@@H](CO)[C@H](O)[C@H]1O.O=S(=O)(O)O.O=S(=O)(O)O.O=S(=O)(O)O [STREPTOMYCIN SULFATE]",
    "measured_quantity": "MIC",
    "unit_text": "µg/mL",
    "val": 6.25
  },
  {
    "compound": "C=C(C)C(O)CCC(=C)[C@@H]1C[C@@H](OC(C)=O)[C@@]2(C)[C@@H]1[C@@H]1[C@H](C)CC[C@@H]12 (mixture of isomers)",
    "measured_quantity": "MIC",
    "unit_text": "µg/mL",
    "val": 100
  },
  {
    "compound": "C=C(CC(=O)C=C(C)C)[C@@H]1CC(=O)[C@@]2(C)[C@@H]1[C@@H]1[C@H](C)CC[C@@H]12",
    "measured_quantity": "MIC",
    "unit_text": "µg/mL",
    "val": 400
  },
  {
    "compound": "C=C(C(O)/C=C/C(C)(O)CO)[C@@H]1C[C@@H](O)[C@@]2(C)[C@@H]1[C@@H]1[C@H](C)CC[C@@H]12 (mixture of isomers)",
    "measured_quantity": "MIC",
    "unit_text": "µg/mL",
    "val": 200
  },
  {
    "compound": "C=C(C(=O)/C=C/C(C)(O)COC(C)=O)[C@@H]1C[C@@H](OC(C)=O)[C@@]2(C)[C@@H]1[C@@H]1[C@H](C)CC[C@@H]12 (some centres not stated)",
    "measured_quantity": "MIC",
    "unit_text": "µg/mL",
    "val": 100
  },
  {
    "compound": "C=C(C(O)/C=C/C(C)=O)[C@@H]1C[C@@H](O)[C@@]2(C)[C@@H]1[C@@H]1[C@H](C)CC[C@@H]12 (some centres not stated)",
    "measured_quantity": "MIC",
    "unit_text": "µg/mL",
    "val": 200
  },
  {
    "compound": "C=C(C/C=C/C(C)(C)O)[C@@H]1C[C@@H](OC(C)=O)[C@@]2(C)[C@@H]1[C@@H]1[C@H](C)CC[C@@H]12 (mixture of isomers)",
    "measured_quantity": "MIC",
    "unit_text": "µg/mL",
    "val": 200
  },
  {
    "compound": "C=C(CC(C=C(C)C)OC(C)=O)[C@@H]1C[C@@H](O)[C@@]2(C)[C@@H]1[C@@H]1[C@H](C)CC[C@@H]12 (some centres not stated)",
    "measured_quantity": "MIC",
    "unit_text": "µg/mL",
    "val": 400
  },
  {
    "compound": "C=C(C/C=C/C(C)(C)O)[C@@H]1C[C@@H](O)[C@@]2(C)[C@@H]1[C@@H]1[C@H](C)CC[C@@H]12",
    "measured_quantity": "MIC",
    "unit_text": "µg/mL",
    "val": 100
  },
  {
    "compound": "C=C(C(O)/C=C/C(C)(O)COC(C)=O)[C@@H]1CC(=O)[C@@]2(C)[C@@H]1[C@@H]1[C@H](C)CC[C@@H]12 (mixture of isomers)",
    "measured_quantity": "MIC",
    "unit_text": "µg/mL",
    "val": 100
  },
  {
    "compound": "C=C(C(O)/C=C/C(C)(O)COC(C)=O)[C@@H]1C[C@@H](O)[C@@]2(C)[C@@H]1[C@@H]1[C@H](C)CC[C@@H]12 (mixture of isomers)",
    "measured_quantity": "MIC",
    "unit_text": "µg/mL",
    "val": 200
  }
]
